- System: NCI-H322M lung
- run_description: NCI-60 one-dose screen, 48 h (100 = growth as untreated, 0 = no growth, -100 = all killed)
- recorded_conditions: 10 µM unless noted
Compounds without any hit were thinned out: in the full panel of roughly 83,000, 20% have a hit.
assay_endpoint: growth (%)
Numbers only, in %.

compound: Clc1ccc(C2=Nc3cccc4cccc(c34)N2)cc1Cl
growth, %: 103
//
compound: C=CC(=O)N1CC2(CCC(n3nc(-c4ccc(Oc5ccccc5)cc4)c4c(N)ncnc43)CC2)C1
growth, %: 0.179
//
compound: O=[N+]([O-])c1ccc(O)c2ncccc12
growth, %: 31.6

Hi! Can you tell me growth for each of these compounds?
1. COc1ccc(-c2nc3sccn3c2/C=C/C(=O)c2cc(OC)c(OC)c(OC)c2)cc1OC
2. CC(C)(C)[Si](C)(C)OC1[C@@H](COC(=O)NC(=O)CCl)O[C@@H](n2cnc3c(N)ncnc32)[C@H]1O[Si](C)(C)C(C)(C)C (stereo partly specified)
3. CCCCCCCC/C=C\CCCCCCCCOc1cccc(CC(=O)NCC[N+]2(C)CCCC2)c1

1. 57.9
2. 113
3. 99.5

====

- Test system: SNB-19 CNS
- run_description: NCI-60 one-dose screen, 48 h (100 = growth as untreated, 0 = no growth, -100 = all killed)
- recorded_conditions: 10 µM unless noted
- Method: Growth inhibition of the SNB-19 human tumor cell line is measured as a screen for anti-cancer activity. Cells are grown in 96 well plates and exposed to the test compound for 48 hours. Compounds are tested at a single concentration, which is 10^-5 M for most compounds. The reported endpoint is percent growth (GI% or GIPRCNT), where numbers from 0 - 100% represent growth inhibition, and numbers from -100% - 0 represent cell death. For example, a value of 40 represents 60% growth inhibition. […]
About 83,000 compounds went through this panel and 20% of them were active in at least one assay; those are over-represented in the sample as a whole.
Lab note - cut at 90% for growth: Yes if strictly below, No if not.

Please review the entries below; each comes with its answer.
compound: CC(=O)OC[C@]1(C)C=C2C(=O)[C@](C)(O)C3(CC3)C(C)=C2[C@H]1OC(C)=O
assayed_target: SNB-19 CNS
class_name: Yes

compound: Brc1ccccc1Nc1ccc2nnc(-c3ccncc3)n2n1
assayed_target: SNB-19 CNS
class_name: No

compound: CCCC1=NNC(=O)C1
assayed_target: SNB-19 CNS
class_name: No

compound: C[C@@H](Oc1cc(-c2cnn(C3CC4(CCCNC4)C3)c2)cnc1N)c1c(Cl)ccc(F)c1Cl (stereo not given in full)
assayed_target: SNB-19 CNS
class_name: Yes

compound: O=[N+]([O-])c1ccc(C=C2C(Cl)=C(Cl)C(Cl)=C2Cl)cc1
assayed_target: SNB-19 CNS
class_name: Yes

Record `Nc1nc(N)c(N=Nc2c(Br)cc(S(N)(=O)=O)cc2Br)c(N)n1` : is its growth strictly below 90%?
No

Record `Cc1cc(C)c(S(=O)O)c(C)c1` : is its growth strictly below 90%?
No

====

- Tested on: A549/ATCC NSCLC
- run_description: NCI-60 one-dose screen, 48 h (100 = growth as untreated, 0 = no growth, -100 = all killed)
- recorded_conditions: 10 µM unless noted
Compounds without any hit were thinned out: in the full panel of roughly 83,000, 20% have a hit.
Lab note - cut at 70% for growth: 1 if strictly below, 0 if not.

compound: NC1=NC(c2ccccc2OS(=O)(=O)c2ccc(Br)cc2)n2c(nc3ccccc32)N1 (centres undefined)
class_name: 0
//
compound: COc1ccc(NC(=O)COc2ccccc2)c(C(N)=O)c1
class_name: 1
//
compound: CC1=C(C/C=C(\C)CCC[C@H](C)CCC[C@H](C)CCCC(C)C)C(=O)c2ccccc2C1=O
class_name: 0

Record `COc1cccc(OC(=O)c2ccccc2)c1OC(=O)c1ccccc1` : is its growth strictly below 70%?
0

====

Would you kindly list growth for each of these molecules?
- Test system: LOX IMVI melanoma
- run_description: NCI-60 one-dose screen, 48 h (100 = growth as untreated, 0 = no growth, -100 = all killed)
- recorded_conditions: 10 µM unless noted
- Method: Growth inhibition of the LOX IMVI human tumor cell line is measured as a screen for anti-cancer activity. Cells are grown in 96 well plates and exposed to the test compound for 48 hours. Compounds are tested at a single concentration, which is 10^-5 M for most compounds. The reported endpoint is percent growth (GI% or GIPRCNT), where numbers from 0 - 100% represent growth inhibition, and numbers from -100% - 0 represent cell death. For example, a value of 40 represents 60% growth inhibition. […]
The panel holds about 83,000 compounds, 20% with a hit somewhere; the sample as a whole holds those more often. The source made the active and inactive calls. Rule for the calls: active = growth percent below 10; inactive = the rest.

Hi! Can you tell me growth for each of these molecules?
1. C=C(C)CCCC(C)CC#N (stereo not drawn)
2. CC(C)(C)[Si](C)(C)OC1[C@@H](COC(=O)NC(=O)CCl)O[C@@H](n2cnc3c(N)ncnc32)[C@H]1O[Si](C)(C)C(C)(C)C (stereo partly drawn)

1: 99.2% (inactive); 2: -94% (active)

====

- Test system: IGROV1 ovarian
- run_description: NCI-60 one-dose screen, 48 h (100 = growth as untreated, 0 = no growth, -100 = all killed)
- recorded_conditions: 10 µM unless noted
- Experimental: Growth inhibition of the IGROV1 human tumor cell line is measured as a screen for anti-cancer activity. Cells are grown in 96 well plates and exposed to the test compound for 48 hours. Compounds are tested at a single concentration, which is 10^-5 M for most compounds. The reported endpoint is percent growth (GI% or GIPRCNT), where numbers from 0 - 100% represent growth inhibition, and numbers from -100% - 0 represent cell death. For example, a value of 40 represents 60% growth inhibition. […]
This is part of a sample that, as a whole, favours compounds with a hit. Of some 83,000 tested, about 20% had one in any assay.
assay_endpoint: growth (%)
Answers are plain numbers, in %.

// below: answered compounds
compound: c1ccc(-c2nc(N3CCOCC3)c3c4c(sc3n2)CCCCCC4)nc1
growth, %: 42.1

compound: O=C(N/N=C/c1ccc2c(c1)OCO2)c1cnn2c1NC(c1ccccc1)C2 (centres undefined)
growth, %: 51.5

compound: COc1ccc(/C=C/C(=O)N2CCC(O)CC2)cc1OC1CCCC1
growth, %: 104

Could you tell me which growth is on file for `CN1CCN(C(=O)OCCOCCOC(=O)N2CCN(C)CC2)CC1` ?
132

====

- Tested on: MALME-3M melanoma
- run_description: NCI-60 one-dose screen, 48 h
- recorded_conditions: 10 µM unless noted
- Procedure: Cells are grown in 96 well plates and exposed to the test compound for 48 hours. Compounds are tested at a single concentration, which is 10^-5 M for most compounds. The reported endpoint is percent growth (GI% or GIPRCNT), where numbers from 0 - 100% represent growth inhibition, and numbers from -100% - 0 represent cell death. For example, a value of 40 represents 60% growth inhibition. A value of 0 means no net growth occurred over the course of the experiment. […]
This is part of a sample that, as a whole, favours compounds with a hit. Of some 83,000 tested, about 20% had one in any assay. Calls of active or inactive are those of the source. Rule for the calls: active = growth percent below 10; inactive = the rest.
Assign a class; possible classes are active, inactive

Hey, what did the test say about COc1cc(C2CC(=O)Nc3c2ccc2ccccc32)cc(Br)c1OC (centres undefined) ?
inactive

====

- Test system: SF-268 CNS
- run_description: NCI-60 one-dose screen, 48 h (100 = growth as untreated, 0 = no growth, -100 = all killed)
- recorded_conditions: 10 µM unless noted
About 83,000 compounds went through this panel and 20% of them were active in at least one assay; those are over-represented in the sample as a whole. Activity calls are given as the source filed them. How the source made its calls: active means growth percent below 10; inactive means the rest.
assay_endpoint: growth

// below: answered compounds
compound: CN1CCN(CCCn2c3c(sc4ncccc43)c(=O)n3nnc(-c4ccccc4)c23)CC1
assay_endpoint: growth
meas_value: 91% (inactive)
//
compound: O=C1C(Br)=C(c2ccccc2)C(=O)C(Br)=C1c1ccccc1
assay_endpoint: growth
meas_value: 102% (inactive)
//
compound: CC(C)(C)[Si](C)(C)OC1[C@@H](CNC(=O)NC(=O)CCl)O[C@@H](n2cnc3c(N)ncnc32)[C@H]1O[Si](C)(C)C(C)(C)C (some centres undefined)
assay_endpoint: growth
meas_value: -76.6% (active)
//
compound: COc1cc(/C=N/NC(=O)c2cnn3c2NC(c2ccccc2)C3)cc(OC)c1OC (centres undefined)
assay_endpoint: growth
meas_value: 81.4% (inactive)

Hi! Can you tell me growth for each of these compounds?
1. COC(=O)c1c2c(c(C)[n+]([O-])c1C)C(=O)C=C(NCc1ccc(F)cc1)C2=O
2. CC1(C)N=C(N)N=C(N)N1c1cccc(OCCOc2cccc([N+](=O)[O-])c2)c1
3. O=S(=O)(Nc1ccccc1Cl)c1ccc(-c2cnc(C3CC3)o2)cc1
4. CC(C)OC1=C(Cl)C(=O)c2ccccc2C1=O
5. O=C1/C(=C/c2ccc(Cl)cc2)N=C(c2ccccc2)N1CCc1cccs1

1: -1.99% (active); 2: 22.9% (inactive); 3: 53.5% (inactive); 4: 93.5% (inactive); 5: 74.7% (inactive)
